Biological target: Cytochrome P450 2C9 (Homo sapiens, UniProt P11712)
Sequence (P11712 whole entry): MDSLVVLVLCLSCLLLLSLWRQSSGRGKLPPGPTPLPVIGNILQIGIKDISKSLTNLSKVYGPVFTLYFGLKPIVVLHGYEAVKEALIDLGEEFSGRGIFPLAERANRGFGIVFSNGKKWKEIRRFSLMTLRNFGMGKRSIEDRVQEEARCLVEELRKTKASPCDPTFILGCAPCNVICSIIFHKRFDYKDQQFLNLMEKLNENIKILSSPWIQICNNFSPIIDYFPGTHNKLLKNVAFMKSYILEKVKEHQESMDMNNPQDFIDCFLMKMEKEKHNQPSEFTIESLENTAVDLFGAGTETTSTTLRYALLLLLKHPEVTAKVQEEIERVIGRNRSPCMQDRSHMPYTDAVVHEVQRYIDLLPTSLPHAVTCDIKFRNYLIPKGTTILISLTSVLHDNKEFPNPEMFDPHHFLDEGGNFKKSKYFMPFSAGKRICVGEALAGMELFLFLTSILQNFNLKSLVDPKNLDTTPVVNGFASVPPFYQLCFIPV
Value type: IC50

Return reported IC50; argument: `Cc1cc(NC2CCN(C(=O)CCNCC(=O)O)CC2)nc(NCc2cn(CCCNCCCNC3CCCCC3)nn2)n1`
> 100 µM

====

Biological target: UniProt:P08684
Sequence (P08684 whole entry): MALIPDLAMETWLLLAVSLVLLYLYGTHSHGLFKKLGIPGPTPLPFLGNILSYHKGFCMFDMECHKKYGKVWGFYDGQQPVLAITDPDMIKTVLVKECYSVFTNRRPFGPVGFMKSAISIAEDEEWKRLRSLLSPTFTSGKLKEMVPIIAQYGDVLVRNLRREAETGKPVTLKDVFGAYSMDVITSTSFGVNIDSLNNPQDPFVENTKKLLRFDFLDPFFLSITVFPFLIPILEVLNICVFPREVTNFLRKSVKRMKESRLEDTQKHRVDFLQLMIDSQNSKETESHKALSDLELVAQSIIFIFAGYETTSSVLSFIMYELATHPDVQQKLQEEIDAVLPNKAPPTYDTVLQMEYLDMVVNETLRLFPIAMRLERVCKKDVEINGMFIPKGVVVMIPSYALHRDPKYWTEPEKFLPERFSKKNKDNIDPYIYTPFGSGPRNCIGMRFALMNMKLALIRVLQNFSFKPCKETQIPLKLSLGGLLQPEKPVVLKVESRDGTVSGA
Value type: IC50

Return reported IC50; argument: `Cc1cc(NC2CCN(C(=O)CCNCC(=O)O)CC2)nc(NCc2cn(CCCNCCCNC3CCCCC3)nn2)n1`
> 100 µM

====

Biological target: C-X-C chemokine receptor type 4 (Homo sapiens, UniProt P61073)
Sequence (P61073 whole entry): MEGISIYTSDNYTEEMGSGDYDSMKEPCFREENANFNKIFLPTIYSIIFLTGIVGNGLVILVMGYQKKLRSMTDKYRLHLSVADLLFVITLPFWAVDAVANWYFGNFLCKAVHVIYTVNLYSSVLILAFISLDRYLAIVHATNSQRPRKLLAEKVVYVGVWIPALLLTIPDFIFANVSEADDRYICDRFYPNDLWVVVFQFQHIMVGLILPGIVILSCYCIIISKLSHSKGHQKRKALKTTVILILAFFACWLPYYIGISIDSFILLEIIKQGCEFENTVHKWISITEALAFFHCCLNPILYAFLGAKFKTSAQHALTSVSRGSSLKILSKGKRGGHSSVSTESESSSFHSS
Experiment: Displacement of [125I]CXCL12 from human CXCR4 expressed in HEK293 cell membranes after 1.5 hrs by Topcount method
For each record, write down the corresponding IC50.
Hey, just the number and the unit after it is fine.

                      smiles_representation                                 tested_on  value_type   result
0  CCCN1CCC(Nc2cc(C)nc(NCc3cn(CCCNCCCNC4CCCCC4)nn3)n2)CC1  C-X-C chemokine receptor type 4 (Homo sapiens, UniProt P61073)        IC50  47.8 nM
1  COc1cc(NC2CCNCC2)nc(NCc2cn(CCCNCCCNC3CCCCC3)nn2)n1  C-X-C chemokine receptor type 4 (Homo sapiens, UniProt P61073)        IC50   473 nM
2  Cc1cc(NC2CCN(CCCCC(=O)O)CC2)nc(NCc2cn(CCCNCCCNC3CCCCC3)nn2)n1  C-X-C chemokine receptor type 4 (Homo sapiens, UniProt P61073)        IC50    93 nM
3  FC(F)(F)c1cc(NC2CCNCC2)nc(NCc2cn(CCCNCCCNC3CCCCC3)nn2)n1  C-X-C chemokine receptor type 4 (Homo sapiens, UniProt P61073)        IC50   860 nM

Could you now consider this next molecule?
Return reported IC50; argument: `CCc1cc(NC2CCNCC2)nc(NCc2cn(CCCNCCCNC3CCCCC3)nn2)n1`
46.8 nM
